Test system: UACC-62 melanoma
EXPERIMENTAL DETAILS: NCI tumour cell line growth inhibition, 48 h
PROPERTY LABEL: TGI

Study these solved cases before continuing.
>>> observed("CCCCCCCCCCC(C)CCCCCCC(=O)OCC(COP(=O)([O-])OCC[N+](C)(C)C)OC(=O)CCCCCCC(C)CCCCCCCCCC (stereo unspecified)")
"> 100 µM"
>>> observed("FC(F)(F)c1cccc(COCCN2CCN(Cc3cccc(C(F)(F)F)c3)CC2)c1")
"28.6 µM"
>>> observed("CCOC(=O)CN=C1Nc2ccccc2C(=O)N2CSCC12 (stereo unspecified)")
"> 100 µM"
>>> observed("CC1Cc2c(N)nc(NN)nc2NC1=O (stereo unspecified)")
"> 100 µM"
>>> observed("CC1(CO)OC1COCc1ccccc1 (stereo unspecified)")
"> 100 µM"

Short answer for O=S(=O)(O)c1ccc2c(N=Nc3ccccc3)c(O)c(S(=O)(=O)O)cc2c1 : TGI was > 100 µM
